- Test system: PC-3 prostate
- METHOD_SUMMARY: NCI-60 one-dose screen, 48 h
- RUN_CONDITIONS: 10 µM
About 83,000 compounds went through this panel and 20% of them were active in at least one assay; those are over-represented in the sample as a whole. Calls of active or inactive are those of the source. Rule for the calls: active = growth percent below 10; inactive = the rest.
Outcome field: choose from active, inactive

[[record]]
substance_smiles = "O=c1c2ccccc2nc(COc2ccccc2)n1/N=C/c1ccc(F)cc1"
label = "inactive"


// outcome(item) with item = Cc1ccc(NC(=O)NCn2c(=O)[nH]c3ccccc3c2=O)cc1
inactive

Record: N#Cc1c(NC(=O)c2ccc(C(F)(F)F)cc2)sc2c1CCC(O)=C2
inactive

Same read-out for COc1ccc(-c2cc(-c3cc(C(=O)c4ccc(Br)cc4)n4ccc(C)cc34)nc(N)c2C#N)cc1 ?
inactive

Param item: CN1CCc2c(sc3ncnc(N/N=C/c4cn(-c5ccccc5)nc4-c4ccc(Cl)cc4)c23)C1
inactive

Also O=c1[nH]c2ccccc2cc1CSc1ccc(Nc2nccc(-c3ccc(C(F)(F)F)cc3)n2)cc1 , if possible.
inactive

###

- Test system: OVCAR-3 ovarian
- METHOD_SUMMARY: NCI-60 one-dose screen, 48 h (100 = growth as untreated, 0 = no growth, -100 = all killed)
- RUN_CONDITIONS: 10 µM
About 83,000 compounds went through this panel and 20% of them were active in at least one assay; those are over-represented in the sample as a whole.
Returns the class for an entry based on its growth. Class ranges: lower band: < -60%; central band: ≥ -60% and < 60%; upper band: ≥ 60%

[[record]]
compound = "O=C1NC(=NC23CC4CC(CC(C4)C2)C3)N/C1=C\\c1ccc2ncccc2n1"
label = "central band"

[[record]]
compound = "O=c1cc(-c2ccccc2)oc2cc(OCCCCNCc3ccccc3)cc(O)c12"
label = "upper band"


Band for the recorded growth of O=S(=O)(Nc1ncccn1)c1ccc(-n2c(-c3ccccc3)nc(-c3ccccc3)c2-c2ccccc2)cc1 ?
upper band

Entry Nc1nc(Nc2ccc(Cl)cc2)n(Cc2cccc(Br)c2)n1 please
central band

Again, but for CC1=C(c2cc(-c3ccc(Cl)cc3)c(C#N)c(N)n2)C(c2ccccc2)NC(=S)N1 (centres undefined)
central band

// same read-out, input: O=C(CSc1ccc(-c2ccc(Cl)cc2)nn1)Nc1ccc(Cl)c(C(F)(F)F)c1
upper band

Another compound to check: C=CC(=O)Nc1nc(-c2cccc(NS(=O)(=O)c3cccc4c(N(C)C)cccc34)c2)cs1
lower band

And N[C@@H](CSSC[C@H](N)C(=O)Nc1ccc(OCC2CCCC2)cc1)C(=O)Nc1ccc(OCC2CCCC2)cc1 ?
lower band

Item: N#Cc1c(NC(=O)c2ccc(C(F)(F)F)c(Cl)c2)sc2c1CCC(=O)C2
central band

###

- Test system: HOP-92 NSCLC
- METHOD_SUMMARY: NCI-60 one-dose screen, 48 h (100 = growth as untreated, 0 = no growth, -100 = all killed)
- RUN_CONDITIONS: 10 µM
- Experimental: Growth inhibition of the HOP-92 human Non-Small Cell Lung tumor cell line is measured as a screen for anti-cancer activity. Cells are grown in 96 well plates and exposed to the test compound for 48 hours. Compounds are tested at a single concentration, which is 10^-5 M for most compounds. The reported endpoint is percent growth (GI% or GIPRCNT), where numbers from 0 - 100% represent growth inhibition, and numbers from -100% - 0 represent cell death. […]
About 83,000 compounds went through this panel and 20% of them were active in at least one assay; those are over-represented in the sample as a whole.
List of growth values.
Numeric only. Scale: %

The examples below pair each entry with its known result.
[[record]]
compound = "O=C(N/C(=C1/OCCN1Cc1ccccc1)[P+](c1ccccc1)(c1ccccc1)c1ccccc1)c1ccccc1"
unit_spec = "%"
reported_value = -16.5

[[record]]
compound = "Cc1ccn2c(C(=O)c3ccccc3)cc(-c3cc(-c4ccc(N(C)C)cc4)c(C#N)c(N)n3)c2c1"
unit_spec = "%"
reported_value = 23.6

[[record]]
compound = "COc1ccc2c(c1)N=C(C(=O)O)/C2=C/c1sc(Nc2ccc(O)cc2)nc1O"
unit_spec = "%"
reported_value = 68.3

[[record]]
compound = "Cc1ccc(-c2nc(Nc3ccccc3C(=O)O)c3ccccc3n2)cc1"
unit_spec = "%"
reported_value = -19.5

[[record]]
compound = "COc1ccccc1NCc1ccc(CO)n1-c1ccc(C)cc1"
unit_spec = "%"
reported_value = 80.5


# growth lookup, item O=C(N=Nc1c(O)[nH]c2ccc(Br)cc12)c1ccc2nc(-c3ccccc3)[nH]c2c1
-78.8

Let us now turn to CC1=C2C(=C[C@@](C)(COCOCCCl)[C@@H]2O)C(=O)[C@](C)(O)C12CC2
-14.6

Cool, now O=C1CCC(N2Cc3cc(NC(=O)COc4ccccc4)ccc3C2=O)C(=O)N1 (stereo not drawn)
-0.508

###

- Test system: HOP-92 NSCLC
- METHOD_SUMMARY: NCI-60 one-dose screen, 48 h (100 = growth as untreated, 0 = no growth, -100 = all killed)
- RUN_CONDITIONS: 10 µM
Compounds without any hit were thinned out: in the full panel of roughly 83,000, 20% have a hit. Active and inactive are the calls of the source. The calls were made as follows: active = growth percent below 10; inactive = the rest.
ENDPOINT_NAME: growth

# lookup: growth of CO[C@@H]1CSS[C@H]1Cn1nc(-c2ccc(Oc3ccccc3)cc2)c2c(N)ncnc21
57.9% (inactive)

Continue with Cc1ccc(C(=O)Nc2ccc(-n3c(C)nc4c(cnn4-c4ccccc4)c3=O)cc2)cc1
93.3% (inactive)

Entry COc1ccc(N(C)c2cc(C#N)nc3ccccc23)cc1N please
58.1% (inactive)

Queued: Cc1ccc(-c2ccc(SCC(=O)Nc3ccc(S(N)(=O)=O)cc3Br)nn2)cc1
-31.6% (active)

Would you kindly repeat that for CCOC(=O)C1NN(c2ccc(S(N)(=O)=O)cc2)c2nc3nc(-c4cccs4)cc(-c4cccs4)c3c(=O)n21 (centres undefined) ?
61.5% (inactive)

###

- Tested on: HOP-62 NSCLC
- METHOD_SUMMARY: NCI-60 one-dose screen, 48 h (100 = growth as untreated, 0 = no growth, -100 = all killed)
- RUN_CONDITIONS: 10 µM
Compounds without any hit were thinned out: in the full panel of roughly 83,000, 20% have a hit.
Catalogue of molecules with associated growth
Entry rule: numbers only, all in %.

Answered cases to consult:
[[record]]
molecule = "O=C1Nc2cc(Cl)ccc2/C1=C/c1cccc(OCc2ccc(Br)cc2F)c1"
reported_value = 11.1

[[record]]
molecule = "CCCn1c(=O)c2[nH]c(-c3ccc(OCc4nc5ccccc5[nH]4)cc3)nc2n(CCC)c1=O"
reported_value = 22.2

[[record]]
molecule = "COc1ccc([C@H]2C(C(=O)c3ccc(Cl)cc3)C3(N[C@@H]2c2ccccc2)C(=O)Nc2ccc(Cl)cc23)cc1 (stereo partly drawn)"
reported_value = -57.2


What value of growth has been reported for the following molecule? C#CCNC(=O)[C@]12CCC(C)(C)C[C@H]1C1=CC[C@@H]3[C@@](C)(CCC#N)[C@H](C(=C)C)CC[C@@]3(C)[C@]1(C)CC2
68.5

// query: Nc1n[nH]c2cccc(C#Cc3cccc(NC(=O)Nc4cc(C(F)(F)F)cc(C(F)(F)F)c4)c3)c12
-55.3

###

- System: T-47D breast
- METHOD_SUMMARY: NCI-60 one-dose screen, 48 h (100 = growth as untreated, 0 = no growth, -100 = all killed)
- RUN_CONDITIONS: 10 µM
Compounds without any hit were thinned out: in the full panel of roughly 83,000, 20% have a hit.
ENDPOINT_NAME: growth (%)
Kindly answer with a numeric value in %, unit omitted.

Some solved entries appear below for comparison.
[[record]]
substance_smiles = "CC1(C)CC[C@]2(C(=O)N3CCOCC3)CC[C@]3(C)C(=CC[C@@H]4[C@@]5(C)CC[C@H](NCO)C(C)(C)[C@@H]5CC[C@]43C)[C@H]2C1"
reported_value = -72.4

[[record]]
substance_smiles = "CCCCCCCCCCCCCCCCCCCC(=O)NCCc1c[nH]c2ccc(OC(=O)CCCC(=O)OCCOOCCOOCCOOCCOOCCOOCCOOCCOOCCOOCCOOCCOOCCOOCCOC)cc12"
reported_value = 22.4

[[record]]
substance_smiles = "COc1cccc(/C=N/NC(=O)c2ccc3nc(-c4ccc(Cl)cc4)[nH]c3c2)c1O"
reported_value = -33.2

[[record]]
substance_smiles = "CCOc1ccc(/C=N/NC(=O)Cn2nc(Cc3ccc([N+](=O)[O-])cc3)c3onc(C)c3c2=O)cc1"
reported_value = 8.58

[[record]]
substance_smiles = "Cc1ccc(-c2cc(-c3cc4ccccc4nc3Cl)[nH]c(=S)n2)cc1"
reported_value = 57.3


Name the reported growth value associated with the compound COc1ccc(-c2cc(-c3cc(C(=O)c4ccc(Br)cc4)n4ccc(C)cc34)nc(N)c2C#N)cc1
82.8

For O=C(CSc1nnc(-c2c[nH]c3ccccc23)n1-c1ccccc1)Nc1ccc(C(=O)/C=C/c2cccc([N+](=O)[O-])c2)cc1 then?
57.5

Also O=C(Nc1ccc(I)cc1)Nc1nc2ccc([N+](=O)[O-])cc2s1 ?
-85.9

Reference for the values: PubChem BioAssay (NCI)
